- Test Name: Plasma pharmacokinetics, cycle 1 day 1 (LC–MS/MS, non-compartmental analysis)
- Assay type: in vivo, human
- Assay Context: human, plasma, oral; Dose 20 mg, Tau 24 hr, cycle 1 day 1; read-out: Half-life, geometric mean (converted)
- Protocol: The plasma levels from cycle 1, day 1 of camonsertib were quantified using a validated liquid chromatography tandem–mass spectrometry (LC–MS/MS) method. […] All PK parameters were calculated using actual sampling times. Mean plasma concentration time profiles at given dose levels and regimens were plotted on semi-logarithmic plots using nominal times.
Recorded Endpoint: half-life (h)
Write the number in h without appending the unit.

## Task Which half-life value is on record for `C[C@@H]1COCCN1c1cc([C@]2(O)C[C@H]3CC[C@@H](C2)O3)c2cnn(-c3cc[nH]n3)c2n1` ?
## Result 4.18
